tested on: MDA-MB-231; test: cell viability relative to vehicle unstimulated control (fraction); higher = more viable cells; settings: pre-treatment time: 18 h then 24 h IFNg/TNF
MEASUREMENT_TYPE: cell viability

Below: 8 molecules and their reported cell viability.
C=C1C(=O)[C@@]23[C@H](O)C[C@@H]4C(C)(C)C(=O)CC[C@@]4(C)[C@@H]2CC[C@@H]1[C@H]3O [Glaucocalyxin A] (compound dose: 10 uM) :: 0.832
CC1(C)CC[C@]2(C(=O)O)CC[C@]3(C)C(=CC[C@@H]4[C@@]5(C)CC[C@H](O[C@@H]6O[C@H](C(=O)O)[C@@H](O)[C@H](O)[C@H]6O[C@@H]6O[C@H](CO)[C@@H](O)[C@H](O)[C@H]6O)C(C)(C)[C@@H]5CC[C@]43C)[C@@H]2C1 [Zingibroside R1] (compound dose: 10 uM) :: 1.19
CC1=CCC2C[C@H]1C2(C)C [(1R)-α-Pinene] (compound dose: 10 uM) :: 0.932
COC(=O)[C@]12OC[C@]34[C@H]([C@@H](O)[C@@H]1O)[C@@]1(C)CC(=O)C(O)=C(C)[C@@H]1C[C@H]3OC(=O)[C@H](OC(=O)C=C(C)C)[C@@H]24 [Brusatol] (compound dose: 10 uM) :: 0.432
CC(C)c1cccc(=O)c(O)c1 [Hinokitiol] (compound dose: 10 uM) :: 0.975
C=C1C(=O)O[C@@H]2CC(C)=C([C@@H](C)CCCOC(C)=O)[C@@H](O)[C@H]12 [Inulicin] (compound dose: 10 uM) :: 0.912
C[C@@H]1O[C@@H](O[C@@H]2[C@H](O)[C@@H](O)[C@H](O[C@H]3CC[C@@]4(C)C(CC[C@]5(C)C4C=C[C@]46OC[C@@]7(CCC(C)(C)CC74)[C@@H](O)C[C@]65C)C3(C)C)O[C@@H]2CO[C@@H]2O[C@H](CO)[C@@H](O)[C@H](O)[C@H]2O)[C@H](O)[C@H](O)[C@H]1O (stereo not given in full) [Saikosaponin C] (compound dose: 10 uM) :: 0.928
C=C1C(=O)[C@]23[C@H](O)[C@H]1CC[C@H]2[C@@]12CO[C@]3(O)[C@@H](O)[C@@H]1C(C)(C)CC[C@@H]2O [Oridonin] (compound dose: 10 uM) :: 0.917

Measured cell viability (MDA-MB-231), entry COC(=O)[C@@H]1C[C@@]23C4=C(CC[C@@H]5CN6C[C@@H](C)[C@@H](C[C@@H](OC(C)=O)[C@@]52COC(C)=O)[C@]63O)CC[C@@H]41 [Yuzurimine] (compound dose: 10 uM) : 1.04

Reported cell viability (MDA-MB-231) for entry C=C(C)[C@@H]1CC[C@]2(C)CC[C@]3(C)[C@H](CC[C@@H]4[C@@]5(C)CC[C@H](O)C(C)(C)[C@@H]5CC[C@]43C)[C@@H]12 [Lupeol] (compound dose: 2 uM) is 0.861

====

tested on: MDA-MB-231; assay: kynurenine production, fold change vs DMSO IFNg/TNF control; higher = more kynurenine produced (less inhibition); settings: pre-treatment time: 18 h then 24 h IFNg/TNF
Quick rule for you: kynurenine production at 0.8 or higher means t, lower means f.

C=C(C)C(=O)O[C@H]1CC2=C[C@@H](C/C(C)=C/[C@H]3OC(=O)C(=C)[C@H]13)OC2=O [Deoxyelephantopin] (compound dose: 10 uM) :: f
C=C1C[C@@]23CC[C@H]4[C@@](C)(CCC[C@@]4(C)C(=O)O[C@@H]4O[C@H](CO)[C@@H](O)[C@H](O[C@@H]5O[C@H](CO)[C@@H](O)[C@H](O)[C@H]5O)[C@H]4O[C@@H]4O[C@H](CO)[C@@H](O)[C@H](O)[C@H]4O)[C@@H]2CC[C@]1(O[C@@H]1O[C@H](CO)[C@@H](O)[C@H](O[C@@H]2O[C@H](CO)[C@@H](O)[C@H](O)[C@H]2O)[C@H]1O[C@@H]1O[C@H](CO)[C@@H](O)[C@H](O)[C@H]1O)C3 [Rebaudioside M] (compound dose: 10 uM) :: f
C=C[C@@]1(C)CC(=O)[C@]2(O)[C@@]3(C)[C@@H](O)CCC(C)(C)[C@@H]3[C@H](O)[C@H](OC(C)=O)[C@@]2(C)O1 [Forskolin] (compound dose: 10 uM) :: t
C[C@@H]1O[C@@H](O[C@@H]2[C@@H](O)[C@H](O[C@H]3CC[C@]4(C)[C@H]5CC=C6[C@@H]7CC(C)(C)CC[C@]7(C(=O)O[C@@H]7O[C@H](CO)[C@@H](O)[C@H](O)[C@H]7O)CC[C@@]6(C)[C@]5(C)CC[C@H]4C3(C)C)O[C@H](C(=O)O)[C@H]2O)[C@H](O)[C@H](O)[C@H]1O (compound dose: 10 uM) :: t
C=C1C(=O)O[C@@H]2CC(C)=C([C@@H](C)CCCOC(C)=O)[C@@H](O)[C@H]12 [Inulicin] (compound dose: 10 uM) :: t

Then this compound:
(Q) Would you say C[C@@]12C[C@@]3(O)O[C@@H](O1)[C@]1(COC(=O)c4ccccc4)[C@@H]3C[C@]12O[C@@H]1O[C@H](COC(=O)c2ccccc2)[C@@H](O)[C@H](O)[C@H]1O [Benzoylpaeoniflorin] (compound dose: 10 uM) shows kynurenine production at minimum 0.8?
(A) t

Values from the supplement of paper PMC13094657
